Recorded OD450 by entry
Molecular target: T1, Peptide 8: Biotin-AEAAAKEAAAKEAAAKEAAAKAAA-Tyr-acid (N-terminal biotin; C-terminal acid)
T1 construct: Control peptide without PC
T1 peptide: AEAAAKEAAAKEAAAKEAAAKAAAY
Assay: scFv ELISA

{"binder": "PcOxP_DB03_B09 (scFv, V domains shown, scFv in periplasmic extract) VH: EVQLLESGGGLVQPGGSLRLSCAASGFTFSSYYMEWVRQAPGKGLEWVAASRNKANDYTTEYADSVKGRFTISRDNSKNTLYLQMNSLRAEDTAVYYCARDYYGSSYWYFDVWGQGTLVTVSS VL: DIVMTQSPDSLAVSLGERATINCTASESLYSSKHKVHYLAWYQQKPGQPPKLLIYGAANRYIGVPDRFSGSGSGTDFTLTISSLQAEDVAVYYCAQFYSYPLTFGGGTKVEIK", "OD450 / OD450": 0.05}
{"binder": "PcOxP_DB02_H04 (scFv, V domains shown, scFv in periplasmic extract) VH: EVQLLESGGGLVQPGGSLRLSCAASGFTFSDEYMEWVRQAPGKGLEWVAASRNKANDYTTEYADSVKGRFTISRDNSKNTLYLQMNSLRAEDTAVYYCARDYYGSSYWYFDVWGQGTLVTVSS VL: DIVMTQSPDSLAVSLGERATINCTASESLYSSKHKVVYLAWYQQKPGQPPKLLIYGASNRYIGVPDRFSGSGSGTDFTLTISSLQAEDVAVYYCAQFYFYPLTFGGGTKVEIK", "OD450 / OD450": 0.04}
